# target-entity: human cathepsin K (Homo sapiens, UniProt P43235)
# Construct: The proform of cathepsin K was converted to mature cathepsin K by brief exposure to pH 4; made in house; host or cells: baculovirus; Trichoplusia ni High Five cells (virus raised in Sf-9)
# Sequence (P43235 115-329): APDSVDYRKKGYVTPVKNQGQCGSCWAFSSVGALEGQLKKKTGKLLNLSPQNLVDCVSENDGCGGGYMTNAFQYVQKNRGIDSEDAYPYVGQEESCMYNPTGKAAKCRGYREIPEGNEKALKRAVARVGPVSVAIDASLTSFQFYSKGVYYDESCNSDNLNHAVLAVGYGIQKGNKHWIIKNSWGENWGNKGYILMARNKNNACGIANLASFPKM
# procedure-summary: Cathepsin K inhibition assay, human recombinant enzyme, fluorogenic substrate Cbz-Phe-Arg-AMC
# Type: biochemical
# protocol-conditions: Table 1, human cathepsin K; read-out: h Cat K IC50
Some compounds, each annotated with its measured IC50.

compound: CCCC[C@H](NC(=O)O[C@@H]1CN(C(=O)NC2CCCCC2)CC1(C)C)C(=O)C(=O)N[C@H](C)c1ccccc1
IC50: 10 to 100 nM

compound: CCCC[C@H](NC(=O)O[C@@H]1CN(C(=O)Oc2ccc3ccccc3c2)CC1(C)C)C(=O)C(=O)N[C@H](C)c1ccccc1
IC50: 10 to 100 nM

compound: CCCC[C@H](NC(=O)O[C@@H]1CN(C(=O)c2csc(-c3ccncc3)n2)CC1(C)C)C(=O)C(=O)N[C@H](C)c1ccccc1
IC50: 10 to 100 nM

compound: CCCC[C@H](NC(=O)O[C@@H]1CN(S(=O)(=O)Cc2ccccc2)CC1(C)C)C(=O)C(=O)N[C@H](C)c1ccccc1
IC50: 10 to 100 nM

compound: CCCC[C@H](NC(=O)OC1C(=O)OC[C@]1(C)CC)C(=O)C(=O)N[C@H](C)c1ccccc1 (some centres unmarked)
IC50: 1 to 10 nM

compound: CCCC[C@H](NC(=O)O[C@@H]1CN(C(=O)OCc2cn(-c3ccccc3)nn2)CC1(C)C)C(=O)C(=O)N[C@H](C)c1ccccc1
IC50: 1 to 10 nM

compound: CCCC[C@H](NC(=O)O[C@@H]1CN(C(=O)Cc2ccccc2)CC1(C)C)C(=O)C(=O)N[C@H](C)c1ccccc1
IC50: 1 to 10 nM

compound: CCCC[C@H](NC(=O)O[C@@H]1CN(C(=O)c2cc(C(C)(C)C)nn2C)CC1(C)C)C(=O)C(=O)N[C@H](C)c1ccccc1
IC50: 1 to 10 nM

compound: CCCC[C@H](NC(=O)O[C@@H]1CN(C(=O)c2nn(-c3ccccc3)nc2C)CC1(C)C)C(=O)C(=O)N[C@H](C)c1ccccc1
IC50: 1 to 10 nM

compound: CCCC[C@H](NC(=O)O[C@@H]1CN(C(=O)Oc2ccc(-c3ccccc3)cc2)CC1(C)C)C(=O)C(=O)N[C@H](C)c1ccccc1
IC50: 1 to 10 nM

compound: CNC(=O)NCCCC[C@H](NC(=O)O[C@@H]1C(=O)OCC1(C)C)C(=O)C(=O)N[C@H](C)c1ccccc1
IC50: 1 to 10 nM

compound: CCCC[C@H](NC(=O)O[C@@H]1CN(C(=O)OCc2c(-c3c(Cl)cccc3Cl)noc2C)CC1(C)C)C(=O)C(=O)N[C@H](C)c1ccccc1
IC50: 1 to 10 nM

compound: CCCC[C@H](NC(=O)O[C@@H]1CN(C(=O)OCC2CCOC2)CC1(C)C)C(=O)C(=O)N[C@H](C)c1ccccc1 (some centres unmarked)
IC50: 10 to 100 nM

compound: CCCC[C@H](NC(=O)O[C@@H]1CN(C(=O)Cc2ccc(-c3ccccc3)cc2)CC1(C)C)C(=O)C(=O)N[C@H](C)c1ccccc1
IC50: 10 to 100 nM

compound: CCCC[C@H](NC(=O)O[C@@H]1CN(C(=O)Cc2ccc(F)cc2)CC1(C)C)C(=O)C(=O)N[C@H](C)c1ccccc1
IC50: 10 to 100 nM

compound: CCCC[C@H](NC(=O)O[C@@H]1CN(C(=O)OCc2c(C)noc2-c2cc(C)on2)CC1(C)C)C(=O)C(=O)N[C@H](C)c1ccccc1
IC50: 10 to 100 nM

compound: CCCC[C@H](NC(=O)O[C@@H]1CN(C(=O)OCCN2CCCC2=O)CC1(C)C)C(=O)C(=O)N[C@H](C)c1ccccc1
IC50: 10 to 100 nM

compound: CCCC[C@H](NC(=O)O[C@@H]1CN(C(=O)Nc2ccc(C(F)(F)F)cc2)CC1(C)C)C(=O)C(=O)Nc1ccn[nH]1
IC50: 0.1 to 1 nM

compound: CCCC[C@H](NC(=O)OC1CN(C(=O)Oc2ccccc2)CC1(C)C)C(=O)C(=O)N[C@H](C)c1ccccc1 (some centres unmarked)
IC50: 10 to 100 nM

compound: CCCC[C@H](NC(=O)O[C@@H]1CN(C(=O)c2cc(C)on2)CC1(C)C)C(=O)C(=O)N[C@H](C)c1ccccc1
IC50: 10 to 100 nM

compound: CCCC[C@H](NC(=O)O[C@@H]1CN(C(=O)Cc2csc(-c3cnccn3)n2)CC1(C)C)C(=O)C(=O)N[C@H](C)c1ccccc1
IC50: 10 to 100 nM

compound: CCCC[C@H](NC(=O)O[C@@H]1CN(c2nnc(C(F)(F)F)s2)CC1(C)C)C(=O)C(=O)Nc1ccn[nH]1
IC50: 0.1 to 1 nM

compound: CCCC[C@H](NC(=O)O[C@@H]1CN(C(=O)N2CCCC2)CC1(C)C)C(=O)C(=O)N[C@H](C)c1ccccc1
IC50: 10 to 100 nM

compound: CCCC[C@H](NC(=O)O[C@@H]1CN(S(=O)(=O)c2ccc3c(c2)OCO3)CC1(C)C)C(=O)C(=O)N[C@H](C)c1ccccc1
IC50: 10 to 100 nM

compound: CCCC[C@H](NC(=O)O[C@@H]1CN(C(=O)NS(=O)(=O)c2ccc(C)cc2)CC1(C)C)C(=O)C(=O)N[C@H](C)c1ccccc1
IC50: 100 to 1000 nM

compound: CCCC[C@H](NC(=O)O[C@@H]1CN(C(=O)c2cc3ccccc3s2)CC1(C)C)C(=O)C(=O)N[C@H](C)c1ccccc1
IC50: 1 to 10 nM
